Test system: A498 complex spheroids with HUVEC/MSC, growth
Test Name: Anticancer human tumor A498 cell line growth inhibition [AhR];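 also: luminescence signal used as a surrogate for viable cells; seven day exposure starting three days after spheroid seeding; luminescence viability scaled so 100% equals DMSO vehicle wells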
Experimental Context: second compound 0.316 µM; first compound 3.16 µM; stronger effect = lower value
Measurement Name: viability, T/C (%)

Molecule	Result
O=C(C=Cc1cccc(S(=O)(=O)Nc2ccccc2)c1)NO + Cc1ccccc1N=Nc1ccc(NC(=O)c2ccnn2C)c(C)c1	46.3
NS(=O)(=O)OCC1CC(n2ccc3c(NC4CCc5ccccc54)ncnc32)CC1O (stereo unspecified) + CC(CO)NC(=O)c1cc(-c2ccc(Cl)cc2)nn(-c2cnn(C)c2)c1=O	23.3
COc1cc(Nc2ncc3c(n2)-c2ccc(Cl)cc2C(c2c(F)cccc2OC)=NC3)ccc1C(=O)O + Cc1cncc(-c2nc(NCCc3c[nH]c4ccccc34)c3ncn(C(C)C)c3n2)c1	45.3
COc1cc(C2c3cc4c(cc3C(OC3OC5COC(C)OC5C(O)C3O)C3COC(=O)C23)OCO4)cc(OC)c1O (stereo unspecified) + Cc1cncc(-c2nc(NCCc3c[nH]c4ccccc34)c3ncn(C(C)C)c3n2)c1	59.9
O=C(c1cc(Cc2n[nH]c(=O)c3ccccc23)ccc1F)N1CCN(C(=O)C2CC2)CC1 + Cc1ccccc1N=Nc1ccc(NC(=O)c2ccnn2C)c(C)c1	88.9
COc1ccc([C@@H](O)c2cc(-c3ncnc4cc(N5CCOCC5)ccc34)c(F)cc2Cl)nn1 + Cc1ccccc1N=Nc1ccc(NC(=O)c2ccnn2C)c(C)c1	11.4

---

System: A498 complex spheroids with HUVEC/MSC, growth
Test Name: Anticancer human tumor A498 cell line growth inhibition [AhR];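 also: luminescence signal used as a surrogate for viable cells; seven day exposure starting three days after spheroid seeding; luminescence viability scaled so 100% equals DMSO vehicle wells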
Experimental Context: second compound 0.1 µM; first compound 0.003 µM; stronger effect = lower value

Compound	viability, T/C
CC(C)CC(NC(=O)C(Cc1ccccc1)NC(=O)c1cnccn1)B(O)O (centres undefined) + CC(CO)NC(=O)c1cc(-c2ccc(Cl)cc2)nn(-c2cnn(C)c2)c1=O	49.4%
CCc1c2c(nc3ccc(O)cc13)-c1cc3c(c(=O)n1C2)COC(=O)[C@]3(O)CC + CC(CO)NC(=O)c1cc(-c2ccc(Cl)cc2)nn(-c2cnn(C)c2)c1=O	77.9%
CCc1c2c(nc3ccc(O)cc13)-c1cc3c(c(=O)n1C2)COC(=O)[C@]3(O)CC + Cc1cncc(-c2nc(NCCc3c[nH]c4ccccc34)c3ncn(C(C)C)c3n2)c1	81.4%
CCc1c2c(nc3ccc(O)cc13)-c1cc3c(c(=O)n1C2)COC(=O)[C@]3(O)CC + Cc1ccccc1N=Nc1ccc(NC(=O)c2ccnn2C)c(C)c1	78.2%
CC(C)CC(NC(=O)C(Cc1ccccc1)NC(=O)c1cnccn1)B(O)O (centres undefined) + Cc1cncc(-c2nc(NCCc3c[nH]c4ccccc34)c3ncn(C(C)C)c3n2)c1	79.8%
Nc1ncn(C2CC(O)C(CO)S2)c(=O)n1 (centres undefined) + CC(CO)NC(=O)c1cc(-c2ccc(Cl)cc2)nn(-c2cnn(C)c2)c1=O	101%
CC(C)CC(NC(=O)C(Cc1ccccc1)NC(=O)c1cnccn1)B(O)O (centres undefined) + Cc1ccccc1N=Nc1ccc(NC(=O)c2ccnn2C)c(C)c1	85.5%
Nc1ncn(C2CC(O)C(CO)S2)c(=O)n1 (centres undefined) + Cc1cncc(-c2nc(NCCc3c[nH]c4ccccc34)c3ncn(C(C)C)c3n2)c1	89.7%
Nc1ncn(C2CC(O)C(CO)S2)c(=O)n1 (centres undefined) + Cc1ccccc1N=Nc1ccc(NC(=O)c2ccnn2C)c(C)c1	97.4%

Reference source: PubChem BioAssay AID1919007
